Measured IC50 by item
test system: OVCAR-3; test: Cell Titer-Glo cell viability: OVCAR-3; format: cell-based; conditions: Homo sapiens, OVCAR3, ovarian cancer, 72 h incubation, Cell Titer-Glo

Examples with answers:
# Molecule, IC50
data = [
    ("O=C(Nc1cnccn1)C1CCCN1c1nc2c(c(Nc3cc(C4CC4)[nH]n3)n1)CCC2 (single isomer, unassigned)", "< 0.1 µM"),
    ("O=C(Nc1ccc(F)nc1)C1CCCN1c1nc2c(c(Nc3cc(C4CC4)[nH]n3)n1)CCC2 (single isomer, unassigned)", "< 1 µM"),
    ("O=C(Nc1ccc(F)nc1)C1CC(O)CN1c1nc2c(c(Nc3cc(C4CC4)[nH]n3)n1)CCC2 (single isomer, unassigned) [Compound 10a]", "1 µM"),
]

Please look at the following molecule next.
Challenge: Which measured IC50 value corresponds to O=C(Nc1ccc(F)nc1)C1CCN1c1nc2c(c(Nc3cc(C4CC4)[nH]n3)n1)CCC2 (racemic) ?
Response given: < 1 µM

---

Target: IGF1R (Homo sapiens, UniProt P08069)
Sequence (P08069 31-1367): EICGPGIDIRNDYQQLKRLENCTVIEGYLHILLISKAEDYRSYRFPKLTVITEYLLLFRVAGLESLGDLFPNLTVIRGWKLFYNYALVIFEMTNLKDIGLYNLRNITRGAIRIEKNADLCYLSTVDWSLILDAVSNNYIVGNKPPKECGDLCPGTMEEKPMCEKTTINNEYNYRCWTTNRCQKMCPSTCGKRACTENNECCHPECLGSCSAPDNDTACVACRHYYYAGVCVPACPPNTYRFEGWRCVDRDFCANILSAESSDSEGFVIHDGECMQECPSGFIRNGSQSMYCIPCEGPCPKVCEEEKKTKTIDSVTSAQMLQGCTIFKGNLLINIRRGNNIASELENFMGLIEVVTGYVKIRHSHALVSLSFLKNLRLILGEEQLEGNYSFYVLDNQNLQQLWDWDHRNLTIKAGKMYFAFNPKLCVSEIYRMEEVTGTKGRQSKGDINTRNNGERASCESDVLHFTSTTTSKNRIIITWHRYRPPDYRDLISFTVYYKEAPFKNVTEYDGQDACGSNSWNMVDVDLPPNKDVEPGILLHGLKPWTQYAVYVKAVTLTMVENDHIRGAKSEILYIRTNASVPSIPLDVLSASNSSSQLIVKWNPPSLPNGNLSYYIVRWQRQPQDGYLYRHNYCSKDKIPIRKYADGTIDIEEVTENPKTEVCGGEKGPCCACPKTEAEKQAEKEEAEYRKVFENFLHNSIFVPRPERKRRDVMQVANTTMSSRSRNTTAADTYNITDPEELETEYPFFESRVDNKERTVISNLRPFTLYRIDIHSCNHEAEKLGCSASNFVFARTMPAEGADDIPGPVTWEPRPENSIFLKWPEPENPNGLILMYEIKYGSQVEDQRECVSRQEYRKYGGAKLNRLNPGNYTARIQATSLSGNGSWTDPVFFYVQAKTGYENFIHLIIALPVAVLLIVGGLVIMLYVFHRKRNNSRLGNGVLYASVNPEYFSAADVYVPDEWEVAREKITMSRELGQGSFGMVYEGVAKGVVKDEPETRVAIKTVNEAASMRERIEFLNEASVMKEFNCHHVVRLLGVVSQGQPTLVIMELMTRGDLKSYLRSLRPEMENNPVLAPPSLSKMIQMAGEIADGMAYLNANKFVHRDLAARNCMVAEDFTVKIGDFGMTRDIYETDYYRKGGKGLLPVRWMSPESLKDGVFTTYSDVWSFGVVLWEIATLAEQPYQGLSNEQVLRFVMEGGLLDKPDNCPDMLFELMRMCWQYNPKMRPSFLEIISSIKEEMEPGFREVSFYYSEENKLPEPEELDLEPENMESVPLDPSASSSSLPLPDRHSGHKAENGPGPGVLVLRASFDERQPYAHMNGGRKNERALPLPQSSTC
Test: In vitro IGF-1R enzymatic assay (ADP-Glo kinase assay)
Type: biochemical
Parameters: purchased Millipore 14-802
Details: IGF-1R, ATP 100 μM, run N1; read-out: IC50 (M) N1
Description: IC50 values of the compounds of the invention against IGF-1R and IR were measured in vitro using an ADP-Glo kinase assay Kit (Promega). […] Kinase reactions in both assays were conducted at 30° C. for 20 min with increasing concentrations of compounds of the invention.
Measured Quantity: IC50 (M)
Expressed in M, but write only the number.

# Compound, Assay Result
rows = [
    ("CC(C)c1cc(Nc2nc(N3CCCC3C(=O)Nc3ccc(F)nc3)nc3c2CCC3)n[nH]1 (single isomer, unassigned) [Compound 8b]", "3.11e-09"),
]

Please look at the following compound next.
Challenge: Which measured IC50 value corresponds to O=C(Nc1ccc(F)nc1)C1CCCN1c1nc2c(c(Nc3cc(C4CC4)[nH]n3)n1)CCC2 (single isomer, unassigned) [Compound 2b] ?
Response given: 7.24e-09

---

test system: HCT-15; experiment: Cell Titer-Glo cell viability: HCT-15; assay type: cell-based; details: Homo sapiens, HCT-15, 72 h, HCT15, colon carcinoma; 72 h
pIC50: −log10 of the molar value.
Measured Quantity: pIC50

Examples with answers:
# Compound, Tgt, pIC50
records = [
    ("CC(C)c1cc(Nc2nc(N3CCCC3C(=O)Nc3ccc(F)nc3)nc3c2CCC3)n[nH]1 (single isomer, unassigned)", "HCT-15", "> 5.00"),
    ("O=C(Nc1ccc(F)nc1)C1CCCN1c1nc2c(c(Nc3cc(C4CC4)[nH]n3)n1)CCC2 (single isomer, unassigned)", "HCT-15", "> 5.00"),
]

Please look at the following compound next.
Challenge: Which measured pIC50 value corresponds to CC1(O)CC(c2nc(-c3ccc4ccc(-c5ccccc5)nc4c3)c3c(N)nccn23)C1 (stereo not drawn) [OSI-906, reference compound] ?
Response given: > 4.00

---

Target sequence: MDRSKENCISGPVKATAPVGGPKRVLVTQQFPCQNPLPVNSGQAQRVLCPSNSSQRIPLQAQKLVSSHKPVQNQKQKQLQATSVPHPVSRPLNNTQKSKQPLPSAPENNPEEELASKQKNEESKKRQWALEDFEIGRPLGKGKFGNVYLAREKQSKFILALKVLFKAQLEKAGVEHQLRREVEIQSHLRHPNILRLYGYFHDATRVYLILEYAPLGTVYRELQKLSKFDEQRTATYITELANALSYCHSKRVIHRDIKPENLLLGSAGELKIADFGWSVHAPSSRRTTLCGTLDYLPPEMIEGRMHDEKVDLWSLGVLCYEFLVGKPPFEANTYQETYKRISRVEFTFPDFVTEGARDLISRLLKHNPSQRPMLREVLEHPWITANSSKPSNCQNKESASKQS
Measured Quantity: pIC50
The read-out pIC50 is expressed as -log10 of concentration in moles per litre.

Challenge: Which measured pIC50 value corresponds to CC(C)c1cc(Nc2nc(N3CCCC3C(=O)Nc3ccc(F)nc3)nc3c2CCC3)n[nH]1 (single isomer, unassigned) [Compound 8b] ?
Response given: 6.88

---

tested on: ASPC-1; test: Cell viability: pancreatic cancer cell line ASPC-1; assay type: cell-based; details: Homo sapiens, ASPC1; ASPC-1 pancreatic cancer cell line
Measured Quantity: IC50 (nM)
Expressed in nM, but write only the number.

Challenge: Which measured IC50 value corresponds to CC(C)c1cc(Nc2nc(N3CCCC3C(=O)Nc3ccc(F)nc3)nc3c2CCC3)n[nH]1 (single isomer, unassigned) ?
Response given: 195

---

target: NTRK2 (TRKB) (Homo sapiens, UniProt Q16620)
Sequence (Q16620 32-822): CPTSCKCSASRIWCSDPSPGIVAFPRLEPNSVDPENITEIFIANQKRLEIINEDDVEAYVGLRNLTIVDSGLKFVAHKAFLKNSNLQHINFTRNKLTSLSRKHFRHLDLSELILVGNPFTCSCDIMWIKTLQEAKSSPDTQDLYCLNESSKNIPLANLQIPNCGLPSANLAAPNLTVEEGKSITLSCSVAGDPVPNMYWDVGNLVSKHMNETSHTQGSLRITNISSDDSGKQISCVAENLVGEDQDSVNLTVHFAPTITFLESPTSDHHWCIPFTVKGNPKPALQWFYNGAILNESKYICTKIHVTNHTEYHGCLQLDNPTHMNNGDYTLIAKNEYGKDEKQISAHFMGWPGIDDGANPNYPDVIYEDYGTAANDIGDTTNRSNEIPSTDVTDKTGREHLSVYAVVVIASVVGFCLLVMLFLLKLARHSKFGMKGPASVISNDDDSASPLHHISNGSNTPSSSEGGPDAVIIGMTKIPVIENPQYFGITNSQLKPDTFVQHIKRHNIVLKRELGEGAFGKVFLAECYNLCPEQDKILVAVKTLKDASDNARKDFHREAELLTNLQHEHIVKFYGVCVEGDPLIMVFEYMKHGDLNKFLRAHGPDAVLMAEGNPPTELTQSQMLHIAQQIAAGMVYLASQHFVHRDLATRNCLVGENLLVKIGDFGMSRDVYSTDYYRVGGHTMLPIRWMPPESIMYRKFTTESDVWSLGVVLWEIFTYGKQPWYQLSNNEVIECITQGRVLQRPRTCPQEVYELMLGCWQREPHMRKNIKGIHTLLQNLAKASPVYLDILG
Measured Quantity: pIC50
The read-out pIC50 is expressed as -log10 of concentration in moles per litre.

Challenge: Which measured pIC50 value corresponds to CC(C)c1cc(Nc2nc(N3CCCC3C(=O)Nc3ccc(F)nc3)nc3c2CCC3)n[nH]1 (single isomer, unassigned) ?
Response given: 7.91

---

tested on: A549; experiment: Cell Titer-Glo cell viability: A549; type: cell-based; conditions: Homo sapiens, A549, 72 h, A549, non-small lung carcinoma; 72 h
Measured IC50 by item
Expressed in µM, but write only the number.

# Compound, Unit Annotation, Assay Result
measured = [
    ("CC1(O)CC(c2nc(-c3ccc4ccc(-c5ccccc5)nc4c3)c3c(N)nccn23)C1 (stereo not drawn) [OSI-906, reference compound]", "µM", 10),
]

Challenge: Which measured IC50 value corresponds to O=C(Nc1ccc(F)nc1)C1CCCN1c1nc2c(c(Nc3cc(C4CC4)[nH]n3)n1)CCC2 (single isomer, unassigned) [Compound 2b] ?
Response given: 1

---

molecular target: TRKC (NTRK3) (Homo sapiens, UniProt Q16288)
Sequence (Q16288 32-839): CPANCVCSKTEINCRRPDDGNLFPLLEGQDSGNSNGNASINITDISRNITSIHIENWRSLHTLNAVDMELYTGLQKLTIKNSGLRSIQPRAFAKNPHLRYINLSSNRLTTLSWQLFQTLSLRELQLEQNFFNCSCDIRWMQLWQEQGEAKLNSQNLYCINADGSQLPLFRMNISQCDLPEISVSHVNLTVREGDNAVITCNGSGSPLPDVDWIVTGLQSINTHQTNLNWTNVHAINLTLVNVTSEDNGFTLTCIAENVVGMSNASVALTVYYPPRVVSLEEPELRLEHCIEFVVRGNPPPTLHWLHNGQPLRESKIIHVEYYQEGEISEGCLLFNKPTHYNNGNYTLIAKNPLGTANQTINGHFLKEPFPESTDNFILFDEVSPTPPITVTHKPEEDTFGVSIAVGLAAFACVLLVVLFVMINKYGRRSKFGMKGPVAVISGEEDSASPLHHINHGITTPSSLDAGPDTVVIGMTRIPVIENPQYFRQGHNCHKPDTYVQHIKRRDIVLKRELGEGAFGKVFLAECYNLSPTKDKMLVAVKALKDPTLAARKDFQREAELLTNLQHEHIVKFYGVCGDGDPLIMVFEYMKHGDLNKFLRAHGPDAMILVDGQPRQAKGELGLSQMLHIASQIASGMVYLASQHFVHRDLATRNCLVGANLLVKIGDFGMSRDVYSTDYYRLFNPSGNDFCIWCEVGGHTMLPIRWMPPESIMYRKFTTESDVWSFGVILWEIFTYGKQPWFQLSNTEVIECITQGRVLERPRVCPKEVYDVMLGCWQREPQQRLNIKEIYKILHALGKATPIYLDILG
Measured Quantity: pIC50
The read-out pIC50 is expressed as -log10 of concentration in moles per litre.

Challenge: Test system TRKC (NTRK3) (Homo sapiens, UniProt Q16288); read-out pIC50; what value for CC(C)c1cc(Nc2nc(N3CCCC3C(=O)Nc3ccc(F)nc3)nc3c2CCC3)n[nH]1 (single isomer, unassigned) ?
Response given: 8.52

---

biological target: IR (Homo sapiens, UniProt P06213); construct: purchased Millipore 14-803; experiment: In vitro IR enzymatic assay (ADP-Glo kinase assay); format: biochemical; settings: activated IR, 30 nM, average; read-out: % Inh @ 30 nM Avg
Sequence (P06213 28-1382): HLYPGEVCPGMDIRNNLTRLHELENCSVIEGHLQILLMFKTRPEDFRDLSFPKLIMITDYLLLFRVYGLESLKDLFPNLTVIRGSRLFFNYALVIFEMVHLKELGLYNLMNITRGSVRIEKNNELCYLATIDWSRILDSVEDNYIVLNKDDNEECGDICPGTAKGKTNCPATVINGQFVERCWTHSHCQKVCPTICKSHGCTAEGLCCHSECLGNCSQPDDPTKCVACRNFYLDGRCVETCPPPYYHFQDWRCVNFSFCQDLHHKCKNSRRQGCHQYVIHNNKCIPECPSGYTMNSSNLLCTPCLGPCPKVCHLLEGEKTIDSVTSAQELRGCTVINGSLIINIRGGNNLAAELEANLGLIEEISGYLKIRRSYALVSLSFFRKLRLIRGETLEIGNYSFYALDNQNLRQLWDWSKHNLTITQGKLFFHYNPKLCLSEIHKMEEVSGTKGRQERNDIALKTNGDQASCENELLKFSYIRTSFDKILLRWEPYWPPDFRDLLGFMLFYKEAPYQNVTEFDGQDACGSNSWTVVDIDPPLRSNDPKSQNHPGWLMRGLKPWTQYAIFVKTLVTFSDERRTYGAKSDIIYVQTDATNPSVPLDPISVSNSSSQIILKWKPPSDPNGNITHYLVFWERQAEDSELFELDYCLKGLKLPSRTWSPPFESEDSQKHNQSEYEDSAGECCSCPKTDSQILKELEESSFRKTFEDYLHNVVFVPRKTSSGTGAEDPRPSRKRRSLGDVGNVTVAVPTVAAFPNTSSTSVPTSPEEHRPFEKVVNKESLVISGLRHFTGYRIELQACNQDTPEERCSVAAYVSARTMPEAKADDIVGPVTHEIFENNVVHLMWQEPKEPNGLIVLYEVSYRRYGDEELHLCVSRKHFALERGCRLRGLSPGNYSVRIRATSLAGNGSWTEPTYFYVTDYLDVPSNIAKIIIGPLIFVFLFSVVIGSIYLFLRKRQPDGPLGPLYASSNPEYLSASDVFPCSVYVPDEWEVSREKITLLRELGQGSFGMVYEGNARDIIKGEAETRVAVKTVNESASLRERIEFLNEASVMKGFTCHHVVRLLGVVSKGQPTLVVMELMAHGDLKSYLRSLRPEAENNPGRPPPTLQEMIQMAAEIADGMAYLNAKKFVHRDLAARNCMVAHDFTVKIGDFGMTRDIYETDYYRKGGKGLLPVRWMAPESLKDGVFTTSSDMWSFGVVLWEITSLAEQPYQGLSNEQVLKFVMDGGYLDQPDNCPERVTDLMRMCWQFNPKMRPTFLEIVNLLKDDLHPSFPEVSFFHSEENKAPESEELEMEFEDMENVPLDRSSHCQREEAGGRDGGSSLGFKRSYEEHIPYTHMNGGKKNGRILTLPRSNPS
Measured Quantity: inhibition at 0.03 µM (%)
Expressed in %, but write only the number.

Examples with answers:
# Compound, Tgt, inhibition at 0.03 µM / %
data = [
    ("O=C(Nc1ccc(F)nc1)C1CCCCN1c1nc2c(c(Nc3cc(C4CC4)[nH]n3)n1)CCC2 (single isomer, unassigned)", "IR (Homo sapiens, UniProt P06213)", 6),
    ("COC1CC(C(=O)Nc2ccc(F)nc2)N(c2nc3c(c(Nc4cc(C5CC5)[nH]n4)n2)CCC3)C1 (single isomer, unassigned) [Compound 21b]", "IR (Homo sapiens, UniProt P06213)", 30),
]

Please look at the following compound next.
Challenge: Test system IR (Homo sapiens, UniProt P06213); read-out inhibition at 0.03 µM; what value for O=C(Nc1ccc(F)nc1)C1CCCCN1c1nc2c(c(Nc3cc(C4CCCC4)[nH]n3)n1)CCC2 (single isomer, unassigned) [Compound 17a] ?
Response given: 3

---

molecular target: UniProt:P08069; experiment: In vitro IGF-1R enzymatic assay (ADP-Glo kinase assay); format: biochemical; set-up: purchased Millipore 14-802; conditions: activated IGF-1R; read-out: IC50
Measured IC50 by item
Expressed in nM, but write only the number.

Examples with answers:
# Compound, Measured Quantity, Assay Result
data = [
    ("O=C(Nc1ccc(F)nc1)C1CC(O)CN1c1nc2c(c(Nc3cc(C4CC4)[nH]n3)n1)CCC2 (single isomer, unassigned) [Compound 10d]", "IC50", 5.8),
    ("O=C(Nc1ccc(F)nc1)C1CCCN1c1nc2c(c(Nc3cc(C4CC4)[nH]n3)n1)CCCC2 (single isomer, unassigned) [Compound 14b]", "IC50", 22),
]

Please look at the following compound next.
Challenge: Which measured IC50 value corresponds to CC(C)c1cc(Nc2nc(N3CCCC3C(=O)Nc3ccc(F)nc3)nc3c2CCCC3)n[nH]1 (single isomer, unassigned) [Compound 13b] ?
Response given: 17

---

target: IR (Homo sapiens, UniProt P06213); construct: purchased Millipore 14-803; assay: In vitro IR enzymatic assay (ADP-Glo kinase assay); format: biochemical; conditions: activated IR; read-out: IC50
Measured Quantity: log10 IC50 (log10 of the value in nM)
All values: base-10 log of IC50 in nM.

Examples with answers:
# Compound, Assay Result
records = [
    ("CC(C)c1cc(Nc2nc(N3CCCC3C(=O)Nc3nccs3)nc3c2CCC3)n[nH]1 (racemic)", 1.04),
    ("O=C(Nc1ccc(F)nc1)C1CC(O)CN1c1nc2c(c(Nc3cc(C4CC4)[nH]n3)n1)CCC2 (single isomer, unassigned) [Compound 10d]", 0.86),
    ("CC(C)c1cc(Nc2nc(N3CC(O)CC3C(=O)Nc3nccs3)nc3c2CCC3)n[nH]1 (racemic)", 1.64),
    ("CC(C)c1cc(Nc2nc(N3CCCC3C(=O)Nc3ccncn3)nc3c2CCC3)n[nH]1 (racemic)", 1.51),
    ("COC1CC(C(=O)Nc2ccc(F)nc2)N(c2nc3c(c(Nc4cc(C5CC5)[nH]n4)n2)CCC3)C1 (single isomer, unassigned) [Compound 21b]", 2.08),
    ("CC(C)c1cc(Nc2nc(N3CCCC3C(=O)Nc3ccc(F)nc3)nc3c2CCCC3)n[nH]1 (single isomer, unassigned) [Compound 13b]", 1.11),
    ("O=C(Nc1ccc(F)nc1)C1CCCN1c1nc2c(c(Nc3cc(C4CC4)[nH]n3)n1)CCC2 (single isomer, unassigned)", 0.76),
    ("O=C(Nc1ccc(F)nc1)C1CCCN1c1nc2c(c(Nc3cc(C4CC4)[nH]n3)n1)CCCC2 (single isomer, unassigned) [Compound 14b]", 1.20),
]

Challenge: Which measured log10 IC50 value corresponds to O=C(Nc1cnccn1)C1CCCN1c1nc2c(c(Nc3cc(C4CC4)[nH]n3)n1)CCC2 (single isomer, unassigned) ?
Response given: 1.62

Challenge: Which measured log10 IC50 value corresponds to CC(C)c1cc(Nc2nc(N3CC(O)CC3C(=O)Nc3ccc(F)nc3)nc3c2CCC3)n[nH]1 (racemic) ?
Response given: 1.34

Challenge: Which measured log10 IC50 value corresponds to CC(C)c1cc(Nc2nc(N3CCCC3C(=O)Nc3ccc(F)nc3)nc3c2CC(C)(C)C3)n[nH]1 (racemic) ?
Response given: 1.56

Challenge: Which measured log10 IC50 value corresponds to CC(C)c1cc(Nc2nc(N3CCCC3C(=O)Nc3ccc(N)nc3)nc3c2CCC3)n[nH]1 (racemic) ?
Response given: 1.20
